tested-system: LsrK (Salmonella typhimurium, UniProt Q8ZKQ6)
Sequence (Q8ZKQ6 whole entry): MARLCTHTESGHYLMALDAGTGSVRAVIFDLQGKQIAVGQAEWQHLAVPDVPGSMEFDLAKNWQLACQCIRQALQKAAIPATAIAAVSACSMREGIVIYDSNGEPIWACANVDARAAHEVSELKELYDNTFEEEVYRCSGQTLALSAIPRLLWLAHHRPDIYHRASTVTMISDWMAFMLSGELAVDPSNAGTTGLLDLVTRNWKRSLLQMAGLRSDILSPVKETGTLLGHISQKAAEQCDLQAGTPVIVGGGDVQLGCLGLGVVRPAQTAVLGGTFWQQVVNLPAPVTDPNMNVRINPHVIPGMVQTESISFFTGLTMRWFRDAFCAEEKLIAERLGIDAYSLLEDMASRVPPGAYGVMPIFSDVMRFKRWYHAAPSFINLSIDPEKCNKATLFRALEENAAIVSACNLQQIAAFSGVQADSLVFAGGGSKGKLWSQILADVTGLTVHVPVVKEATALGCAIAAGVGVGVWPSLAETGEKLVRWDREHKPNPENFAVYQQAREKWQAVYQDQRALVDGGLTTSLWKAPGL
method: biochemical
Assay type: biochemical, S. typhimurium
Counter-ions that a name gives are not always drawn.
parameter: inhibition at 50 µM (%)
# value in %; strip the unit string

Recorded inhibition at 50 µM, per entry:
compound: [H]/N=C(/N)N/C(=N/[H])NCCc1ccccc1 [PHENFORMIN HYDROCHLORIDE]
tested-system: LsrK (Salmonella typhimurium, UniProt Q8ZKQ6)
inhibition at 50 µM, %: 0
--
compound: CC[C@H]1OC(=O)C[C@@H](O)[C@H](C)[C@@H](O[C@@H]2O[C@H](C)[C@@H](O)[C@H](N(C)C)[C@H]2O)[C@@H](CCN2C[C@H](C)C[C@H](C)C2)C[C@@H](C)C(=O)/C=C/C(C)=C/[C@@H]1CO[C@@H]1O[C@H](C)[C@@H](O)[C@@H](OC)[C@H]1OC
tested-system: LsrK (Salmonella typhimurium, UniProt Q8ZKQ6)
inhibition at 50 µM, %: 16
--
compound: CC(C)Oc1ccc2c(=O)c(-c3ccccc3)coc2c1
tested-system: LsrK (Salmonella typhimurium, UniProt Q8ZKQ6)
inhibition at 50 µM, %: 2

**Q:** Would you kindly share the measured inhibition at 50 µM for `CC[C@@]1(O)C[C@H](O[C@H]2C[C@H](N(C)C)[C@H](O)[C@H](C)O2)c2c(cc3c(c2O)C(=O)c2c(O)ccc(O)c2C3=O)[C@H]1C(=O)OC` ?
**A:** 1

**Q:** Would you kindly share the measured inhibition at 50 µM for `O=C(O)C1=C[C@@H](O)[C@@H](O)[C@H](O)C1` ?
**A:** 1

**Q:** Would you kindly share the measured inhibition at 50 µM for C/C=C(\C)C(=O)O[C@H]1[C@H](OC(C)=O)[C@@]2(CO)C(CC1(C)C)C1=CC[C@@H]3[C@@]4(C)CC[C@H](O[C@@H]5O[C@H](C(=O)O)[C@@H](O[C@@H]6O[C@H](CO)[C@@H](O)[C@H](O)[C@H]6O)[C@H](O)[C@H]5O[C@@H]5O[C@H](CO)[C@@H](O)[C@H](O)[C@H]5O)[C@H](CO)C4CC[C@@]3(C)[C@@]1(C)C[C@H]2O (stereo partly drawn) ?
**A:** 129
